Molecular target: Proton Pump (H^+/K^+-ATPase) (Sus scrofa)
Sequence (P19156 2-1034 limits assumed): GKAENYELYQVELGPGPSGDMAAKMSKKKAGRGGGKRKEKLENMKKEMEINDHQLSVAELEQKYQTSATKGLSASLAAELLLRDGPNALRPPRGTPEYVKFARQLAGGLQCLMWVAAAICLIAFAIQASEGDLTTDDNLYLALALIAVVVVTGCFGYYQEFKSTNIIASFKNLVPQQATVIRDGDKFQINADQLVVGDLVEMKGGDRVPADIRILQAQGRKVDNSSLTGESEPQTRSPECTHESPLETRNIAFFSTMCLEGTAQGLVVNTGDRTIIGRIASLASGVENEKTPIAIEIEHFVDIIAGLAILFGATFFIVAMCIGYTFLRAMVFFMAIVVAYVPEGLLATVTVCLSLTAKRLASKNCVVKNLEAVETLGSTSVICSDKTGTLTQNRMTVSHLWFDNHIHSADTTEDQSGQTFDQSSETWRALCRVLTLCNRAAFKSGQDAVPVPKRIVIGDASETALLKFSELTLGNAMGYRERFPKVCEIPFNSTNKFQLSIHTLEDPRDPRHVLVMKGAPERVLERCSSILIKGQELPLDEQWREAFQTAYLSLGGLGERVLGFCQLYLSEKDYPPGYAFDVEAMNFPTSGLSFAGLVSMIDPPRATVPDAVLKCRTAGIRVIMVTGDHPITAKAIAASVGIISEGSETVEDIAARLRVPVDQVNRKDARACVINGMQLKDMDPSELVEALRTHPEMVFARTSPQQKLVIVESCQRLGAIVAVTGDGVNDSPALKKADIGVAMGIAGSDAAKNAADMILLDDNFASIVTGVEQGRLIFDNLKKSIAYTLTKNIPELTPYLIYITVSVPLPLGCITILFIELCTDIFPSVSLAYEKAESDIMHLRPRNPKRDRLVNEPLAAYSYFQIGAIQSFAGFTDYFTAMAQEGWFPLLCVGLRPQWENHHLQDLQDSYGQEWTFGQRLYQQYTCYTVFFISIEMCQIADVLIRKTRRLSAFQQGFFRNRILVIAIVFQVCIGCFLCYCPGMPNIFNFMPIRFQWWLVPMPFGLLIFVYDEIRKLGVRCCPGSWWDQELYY
Sequence (P18434 whole entry partner): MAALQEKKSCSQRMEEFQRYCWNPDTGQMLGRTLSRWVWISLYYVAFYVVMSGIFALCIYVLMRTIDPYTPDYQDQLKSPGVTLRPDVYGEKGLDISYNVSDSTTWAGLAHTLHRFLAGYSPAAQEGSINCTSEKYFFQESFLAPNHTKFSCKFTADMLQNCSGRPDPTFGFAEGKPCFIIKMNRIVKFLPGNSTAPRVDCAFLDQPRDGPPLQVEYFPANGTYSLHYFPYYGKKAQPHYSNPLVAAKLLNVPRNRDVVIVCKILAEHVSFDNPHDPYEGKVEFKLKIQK
Experiment: Inhibitory effects on proton pump (H^+/K^+-ATPase) activity
Type: biochemical
Settings: hog gastric vesicles; K^+ stimulated H^+/K^+-ATPase activity; 30 minutes at 37° C.
pIC50: −log10 of the molar value. Structures can show the parent of a compound that is named as a salt.
Values of pIC50 greater than or equal to 7 map to true (1); values below map to false (0).

IN: Can Cc1c(C)n(CC2CC2)c2c(COc3ccc(F)cc3)nccc12 [Example 7, hydrochloride] be said to have pIC50 at or above 7?
OUT: false (0)

IN: Can CCCn1c(C)c(C)c2cc(C(=O)N3CCN(C)CC3)nc(N3CCc4ccccc4C3)c21 [Example 825, hydrochloride] be said to have pIC50 at or above 7?
OUT: true (1)

IN: Can CC=Cn1c(C)c(C)c2ccnc(CNc3ccc(F)cc3)c21 [Example 108, hydrochloride] be said to have pIC50 at or above 7?
OUT: false (0)

IN: Can Cc1c(C)n(Cc2ccccc2)c2c(NCc3ccc(Cl)cc3)nccc12 [Example 215, hydrochloride] be said to have pIC50 at or above 7?
OUT: false (0)

IN: Can Cc1c(C)n(Cc2ccccc2)c2c(N3CCc4ccccc4C3)nc(C(=O)N3CCCCC3)cc12 [Example 788, hydrochloride] be said to have pIC50 at or above 7?
OUT: true (1)

IN: Can C=CCn1c(C)c(C)c2cc(C#N)nc(N3CCc4ccccc4C3)c21 be said to have pIC50 at or above 7?
OUT: false (0)

IN: Can CCn1c(C)c(C)c2ccnc(N3CCc4cc(F)ccc4C3C)c21 (centres unmarked) [Example 562, hydrochloride] be said to have pIC50 at or above 7?
OUT: true (1)

IN: Can Cc1c(C)n(CC2CCC2)c2c(N3CCc4ccccc4C3)nc(C(=O)N3CCN(C)CC3)cc12 [Example 830, hydrochloride] be said to have pIC50 at or above 7?
OUT: true (1)

Numbers sourced from patent US7662832B2.
